Data provenance: patent US4906661A

Target: β2 receptors, guinea pig trachea (Cavia porcellus)
Sequence (Q8K4Z4 whole entry): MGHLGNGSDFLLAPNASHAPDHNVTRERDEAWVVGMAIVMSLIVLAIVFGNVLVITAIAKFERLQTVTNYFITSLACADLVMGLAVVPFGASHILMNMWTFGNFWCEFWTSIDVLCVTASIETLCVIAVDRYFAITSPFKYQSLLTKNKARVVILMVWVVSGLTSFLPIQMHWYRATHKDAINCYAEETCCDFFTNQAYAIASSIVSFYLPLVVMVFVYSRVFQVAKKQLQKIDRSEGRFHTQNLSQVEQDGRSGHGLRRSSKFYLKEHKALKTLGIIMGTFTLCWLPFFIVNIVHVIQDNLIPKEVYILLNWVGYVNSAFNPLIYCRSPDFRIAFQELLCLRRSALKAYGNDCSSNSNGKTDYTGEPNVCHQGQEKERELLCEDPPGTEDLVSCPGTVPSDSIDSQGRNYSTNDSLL
Test: cell-based
Details: Table IV; mean, n ≥ 2, range ≤ ± 0.2 units; read-out: pA2 Trachea (converted)
Result Type: log10 of Kb (log10 of the value in nM)
Record value = log10 of Kb given in nM.

Known log10 of Kb results, listed for orientation:
{"columns": ["Compound", "log10 of Kb"],
 "data": [
  ["CCOC(=O)CCc1ccc(OCC(O)CNC(C)(C)CNS(=O)(=O)c2ccccc2)cc1 (centres unmarked)", 2.40],
  ["CCOC(=O)CCc1ccc(OCC(O)CNC(C)(C)CNC(=O)OCC)cc1 (centres unmarked)", 2.30],
  ["CCOC(=O)c1ccccc1OCC(O)CNCCNS(=O)(=O)N(C)C (centres unmarked)", 1.30],
  ["CCOC(=O)NCC(C)(C)NCC(O)COc1ccccc1C(=O)OCC (centres unmarked)", 1.00],
  ["CCOC(=O)c1ccccc1OCC(O)CNCCNS(=O)(=O)c1ccc(C)cc1 (centres unmarked)", 1.40]
]}

Look at each compound and report its log10 of Kb.
1. CCOC(=O)CCc1ccc(OCC(O)CNCCNS(=O)(=O)c2ccc(C)cc2)cc1 (centres unmarked)
2. CCOC(=O)CCc1ccccc1OCC(O)CNCCNS(=O)(=O)c1ccc(C)cc1 (centres unmarked)
3. CCOC(=O)c1ccccc1OCC(O)CNCCNC(=O)C(C)C (centres unmarked)

Return:
3.80
2.10
1.30
